assay readout: melting point

{"molecule": "O=C(Nc1ccccn1)C(CC1CCCC1)c1ccc(-c2cccnc2)cc1 (stereo not given)", "result": "139 to 140 °C"}
{"molecule": "COc1cc(Nc2c(C#N)cnc3sc(CCCCO)cc23)cc(OC)c1OC", "result": "125 to 127 °C"}
{"molecule": "Clc1ccc(-c2ccc(Br)cc2)nn1", "result": "201 to 203 °C"}
{"molecule": "COC(Cn1ncc(-c2ccc(S(C)(=O)=O)cc2)c(-c2ccc(F)cc2)c1=O)c1ccccc1 (stereo not given)", "result": "135 to 137 °C"}
{"molecule": "CC1=C(C#N)C(c2cccc3ncc(Cc4ccccc4)cc23)C(C(=O)OC(C)C)=C(C)N1 (stereo not given)", "result": "188 to 190 °C"}

Prompt line: Recall and state the measured melting point for COC(=O)C(Cc1ccc(-c2cccc(CNCC(=O)c3ccccc3)c2)cc1)Nc1ccccc1C(=O)c1ccccc1 (stereo not given) .
Response line: 75 °C

Prompt line: Recall and state the measured melting point for `CCCc1nc(Sc2ccc(O)cc2)c(C=O)n1Cc1cc2c(cc1Cl)OCO2` .
Response line: 242 °C

Prompt line: Recall and state the measured melting point for `CC(C)c1ccc(S(=O)(=O)Nc2cnc(Cl)cc2I)cc1` .
Response line: 160 °C

Prompt line: Recall and state the measured melting point for CCCCNS(=O)(=O)CC(O)C(O)C(CC1CCCCC1)NC(=O)CCC(C)C (stereo not given) .
Response line: 88 to 92 °C

Prompt line: Recall and state the measured melting point for `CS(=O)(=O)c1cc(C(F)(F)F)ccc1C(=O)CC(=O)C1CC1` .
Response line: 123 to 125 °C

Prompt line: Recall and state the measured melting point for `COc1cc(OC)nc(NC(=O)NS(=O)(=O)c2c(C(=O)C3CC3)cnn2C)n1` .
Response line: 189 to 192 °C

Prompt line: Recall and state the measured melting point for `CNC(=O)c1cnc(N2CCOCC2)cc1-c1ccccc1C` .
Response line: 156 to 158 °C

Prompt line: Recall and state the measured melting point for `COc1cc2c(Nc3ccc(Cl)cc3F)ncnc2cc1OCc1ccccn1` .
Response line: 215 to 218 °C

Prompt line: Recall and state the measured melting point for CN1C(=O)SC(Cc2ccc(N)cc2)C1=O (stereo not given) .
Response line: 91 to 92 °C

* * *

Listed below: melting point values for each entry.

{"compound": "NC=C1C(=O)N(c2cccc(Cl)c2)c2ccccc21", "melting point": "141 to 143 °C"}
{"compound": "CCOC(=O)c1c(SC)nc(-c2ccc(SC)cc2)n(-c2ccc(C)cc2)c1=O", "melting point": "153 to 155 °C"}
{"compound": "CC(C)c1cc(O)cc(C(C)C)c1NC(=O)CN1CCN(CCSc2nc3ccccc3[nH]2)CC1", "melting point": "241 to 242 °C"}
{"compound": "COc1ccc(C(Cc2ccc(OCCc3nc(-c4ccccc4)oc3C)cc2)C(=O)O)cc1 (stereo not given)", "melting point": "115 to 117 °C"}
{"compound": "O=C(Nc1ccc(F)cc1F)c1cccc(Cl)n1", "melting point": "86 to 87 °C"}
{"compound": "CCCCCCCNC(=O)Nc1ccc(N(C)C)cc1C(=O)NCC1CCN(C(c2ccc(OC)cc2)c2ccc(OC)cc2)CC1", "melting point": "163 °C"}

Prompt line: Recall and state the measured melting point for COc1ccccc1NC(=O)NCc1cccc2c1CN(C1CCC(=O)NC1=O)C2=O (stereo not given) .
Response line: 187 to 189 °C

Prompt line: Recall and state the measured melting point for CCOC(=O)C1(C)C(=O)Nc2cc(NC(=O)c3ccncc3)c([N+](=O)[O-])cc21 (stereo not given) .
Response line: 217 to 219 °C

Prompt line: Recall and state the measured melting point for `CCOC(=O)c1c(C)nn(-c2cccc(N)c2)c1C` .
Response line: 93 to 95 °C

Prompt line: Recall and state the measured melting point for `c1ccc(OCCSCc2nnc(-c3ccc(OCCCN4CCC4)cc3)o2)cc1` .
Response line: 60 °C

Prompt line: Recall and state the measured melting point for `NC(=O)c1sc2nccc(N3CCC(c4ccccc4)CC3)c2c1N` .
Response line: 226 to 233 °C

Prompt line: Recall and state the measured melting point for `CCOC(=O)c1cn2c(cc(OC(C)C)c3ccc(Cl)cc32)n1` .
Response line: 187 to 189 °C

Prompt line: Recall and state the measured melting point for `O=C(NCc1ccc(Cl)cc1)c1cnc2sc(C(=O)N3CCOCC3)cc2c1O` .
Response line: 217 to 219 °C

Prompt line: Recall and state the measured melting point for `C=CCN1CCC(=O)N(c2c(C)cccc2C)C1=S` .
Response line: 88 to 91 °C

Prompt line: Recall and state the measured melting point for `CCOC(=O)Cc1cc(C)c(C(=O)c2ccc(Cl)cc2Cl)n1C` .
Response line: 90 to 92 °C

Prompt line: Recall and state the measured melting point for Cc1ccc(C(=O)n2c3c(c4cc(F)ccc42)CC(C(=O)O)CC3)cc1 (stereo not given) .
Response line: 229 to 231 °C

Prompt line: Recall and state the measured melting point for `Cc1cccc2c(=O)cc(O)c(=O)[nH]c12` .
Response line: 184 to 186 °C

Prompt line: Recall and state the measured melting point for `Cc1nc2cc(Sc3cccc4cnccc34)c([N+](=O)[O-])cc2c(=O)[nH]1` .
Response line: > 270 °C

Prompt line: Recall and state the measured melting point for `COc1c(O)c(OC)c2c(=O)cc(-c3ccc(O)cc3)oc2c1OC` .
Response line: 266 to 268 °C

Prompt line: Recall and state the measured melting point for `C=C(C)CNc1cc(C)nc2cn[nH]c12` .
Response line: 161 to 164 °C

* * *

Listed below: melting point values for each entry.

These solved cases illustrate the format of a correct answer.
{"compound": "CC(C)n1cc(-c2nc(C#N)c(N)nc2-c2ccc(F)cc2)ccc1=O", "melting point": "207 °C"}
{"compound": "N#Cc1cnn2c(-c3cc(Cl)ccc3Cl)ccnc12", "melting point": "202 to 204 °C"}
{"compound": "CC#CNc1c([N+](=O)[O-])cc(C(F)(F)F)c(Cl)c1[N+](=O)[O-]", "melting point": "86 to 87 °C"}
{"compound": "Cc1cc(-c2cc(C(F)(F)F)nn2-c2ccc(S(N)(=O)=O)c(F)c2)ccc1-c1cscn1", "melting point": "125 to 127 °C"}
{"compound": "Cc1cc(-c2nc3c(s2)C(=O)c2ccccc2C3=O)oc1C", "melting point": "250 °C"}
{"compound": "CCCCc1nc(SCC)c(C(=O)O)n1Cc1ccc(-c2ccccc2C(=O)O)cc1", "melting point": "156 °C"}
{"compound": "CCn1c(=O)[nH]c2ncn(CC)c2c1=O", "melting point": "204 to 205 °C"}
{"compound": "Cc1ccc(S(=O)(=O)N(c2ccc(Cl)cc2C#N)C(C)C)cc1", "melting point": "130 °C"}
{"compound": "Cc1oc(-c2ccco2)nc1COc1ccc(COc2nn(-c3ccccc3)cc2/C=C/C(=O)O)cc1", "melting point": "144 to 145 °C"}
{"compound": "CC(C)(C)CN1C(=O)N(CC(=O)O)CC(c2ccccc2Cl)c2cc(Cl)ccc21 (centres undefined)", "melting point": "228 to 231 °C"}

Next item in the queue.
Prompt line: Recall and state the measured melting point for COC(=O)CC(c1ccc(F)cc1)C(C#N)C(=O)OC (centres undefined) .
Response line: 80.2 °C

* * *

Listed below: melting point values for each entry.

These solved cases illustrate the format of a correct answer.
{"compound": "COC(=O)C(=O)c1ccc(OCCOc2ccc(-c3ccccc3)cc2)cc1", "melting point": "143 to 145 °C"}
{"compound": "CNC(=C[N+](=O)[O-])NCCCCCCCCCCCCNC(C[N+](=O)[O-])NCCSCc1ccc(CN(C)C)o1 (stereo unspecified)", "melting point": "78 to 80 °C"}
{"compound": "Cc1nc2cccc(Cl)c2c(=O)o1", "melting point": "149 °C"}
{"compound": "COCCOc1ccc(I)cc1", "melting point": "36 to 37 °C"}
{"compound": "COc1c(C#N)c(C)cc2c1C(C)(C)CCC2(C)C", "melting point": "71 to 73 °C"}
{"compound": "Cc1nccn1Cc1nc2ccccc2n1-c1ccccc1", "melting point": "124 to 126 °C"}
{"compound": "Oc1cc(-c2ncnc(C(F)(F)F)c2Cl)c(F)cc1Cl", "melting point": "130 to 132 °C"}
{"compound": "O=c1oc2cc(O)c(O)cc2c(O)c1-c1coc2c1c(=O)oc1cc(O)c(O)cc12", "melting point": "> 300 °C"}
{"compound": "CC(c1cc(Br)c(O)c(Br)c1)(c1cc(Br)c(O)c(Br)c1)c1cc(Br)c(O)c(Br)c1", "melting point": "160 °C"}
{"compound": "CN1c2cscc2CNc2ccccc21", "melting point": "125 to 127 °C"}

Prompt line: Recall and state the measured melting point for `Cc1cc2c3c(cccc3c1Br)C(=O)N(O)C2=O` .
Response line: 255 to 257 °C
